test system: SK-MEL-28 melanoma; test: NCI tumour cell line growth inhibition, 48 h
Parameter: TGI. Scope: all listed entries.

Reference set (3 entries):
>  <compound>
CCOC(=O)/C=C/c1ccc(C(=O)OCC)[nH]1

>  <recorded-measurement>
> 100 µM

$$$$
>  <compound>
CC[C@H]1C=CCC[C@@]2(C[C@@H]3CC[C@@H]4[C@H](C(=O)OCCCCCCCCCCCCCCCC(=O)N(CCCN)C[C@@H](O)CCN)[C@]5(CCC[C@@H](C)O5)NC(=[N+]34)N2)O1

>  <recorded-measurement>
2.9 µM

$$$$
>  <compound>
CC(=O)Oc1ccc2c(c1)CC[C@@H]1C2[C@@H](O[N+](=O)[O-])C[C@@]2(C)C1CC[C@@H]2O (some centres undefined)

>  <recorded-measurement>
> 100 µM

$$$$

Query compound follows.
Challenge: Which TGI value is on record for "CCn1c2c(c3c(C(=O)OC)c(O)ccc31)C(=O)c1ccccc1C2=O" ?
Response given: 42.6 µM
